target: furin, P09958; assay: furin cleavage Z-score vs untreated control; higher = more cleavage, active = 3.5 or more, inactive = 1 or less, 8 variable residues between constant flanks; conditions: 15 min;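 also: purified furin at 1:10 enzyme:substrate in 50 mM HEPES pH 7.5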
Sequence (P09958 whole entry): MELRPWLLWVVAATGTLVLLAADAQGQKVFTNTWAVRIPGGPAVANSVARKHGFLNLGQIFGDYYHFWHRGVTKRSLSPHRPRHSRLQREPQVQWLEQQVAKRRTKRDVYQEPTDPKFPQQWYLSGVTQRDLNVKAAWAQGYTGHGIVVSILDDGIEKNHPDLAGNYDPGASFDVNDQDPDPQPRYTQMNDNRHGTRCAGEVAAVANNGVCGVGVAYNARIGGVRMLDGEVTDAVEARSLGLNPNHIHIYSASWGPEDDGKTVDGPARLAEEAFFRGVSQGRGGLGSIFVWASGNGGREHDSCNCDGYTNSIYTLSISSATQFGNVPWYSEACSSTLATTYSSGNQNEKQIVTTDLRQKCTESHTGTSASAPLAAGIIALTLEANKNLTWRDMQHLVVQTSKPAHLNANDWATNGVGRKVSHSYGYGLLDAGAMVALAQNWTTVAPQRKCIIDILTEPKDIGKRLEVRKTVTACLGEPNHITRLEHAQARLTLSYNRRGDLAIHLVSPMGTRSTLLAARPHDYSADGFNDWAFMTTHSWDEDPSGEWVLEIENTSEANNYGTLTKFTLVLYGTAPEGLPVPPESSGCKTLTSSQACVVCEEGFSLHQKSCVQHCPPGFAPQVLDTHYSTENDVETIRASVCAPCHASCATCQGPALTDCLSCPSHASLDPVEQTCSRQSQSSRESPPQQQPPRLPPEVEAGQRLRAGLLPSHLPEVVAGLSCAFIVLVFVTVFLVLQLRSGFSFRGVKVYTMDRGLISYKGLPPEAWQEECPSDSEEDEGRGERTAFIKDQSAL
Some of the results follow. No count for the full screen is at hand.
Hi, to clarify the labels: 1.0 covers furin cleavage Z-score from 1 upward, 0.0 covers anything below 1.

Answered examples (3):
CAWLAGLFYHAGNASASA [HC379] ... 0.0
CAKVPCHRPSAGNASASA [HC2314] ... 0.0
CAIDRRIARFAGNASASA [FS-539] ... 1.0

Enquiry: Say whether CAPGSRKRRTAGNASASA [FS-1147] shows furin cleavage Z-score of 1 or more.
Return: 1.0

Enquiry: Say whether CAVMHRVARHAGNASASA [FS-1431] shows furin cleavage Z-score of 1 or more.
Return: 1.0

Enquiry: Say whether CADSMEECSQAGNASASA [HC1817] shows furin cleavage Z-score of 1 or more.
Return: 1.0

Enquiry: Say whether CANCSIYPGHAGNASASA [HC313] shows furin cleavage Z-score of 1 or more.
Return: 0.0

Enquiry: Say whether CASGTFPINAAGNASASA [HC1189] shows furin cleavage Z-score of 1 or more.
Return: 0.0

Enquiry: Say whether CAMEEESQHLAGNASASA [HC13] shows furin cleavage Z-score of 1 or more.
Return: 0.0

Enquiry: Say whether CAVGQLFTFSAGNASASA [HC304] shows furin cleavage Z-score of 1 or more.
Return: 0.0
